# Measured on: hSSTR4 (Homo sapiens)
# Construct: expressed in transfected cells
# Sequence (P31391 whole entry): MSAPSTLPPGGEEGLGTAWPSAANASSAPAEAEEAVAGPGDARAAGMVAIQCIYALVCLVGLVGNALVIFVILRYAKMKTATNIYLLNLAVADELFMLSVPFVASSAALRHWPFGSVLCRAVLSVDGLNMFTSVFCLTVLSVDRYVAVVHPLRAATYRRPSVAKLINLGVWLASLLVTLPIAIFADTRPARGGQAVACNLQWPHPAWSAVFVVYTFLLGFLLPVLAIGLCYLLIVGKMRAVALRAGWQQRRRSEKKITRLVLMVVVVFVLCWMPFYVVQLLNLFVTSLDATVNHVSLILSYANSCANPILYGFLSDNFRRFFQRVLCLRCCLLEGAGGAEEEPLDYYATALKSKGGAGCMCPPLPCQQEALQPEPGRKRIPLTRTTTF
# Method notes: inhibition of cAMP via hSSTR4
# Assay type: cell-based
# Reported conditions: selectivity for inhibition of cAMP via hSSTR2 vs. hSSTR4

Smiles data: COc1ncc(-c2cc(C)cc(F)c2)c(N2CCC(N)CC2)c1-c1nc2cc(F)ccc2[nH]1
hSST4/hSST2 (ratio): a (above 50)
//
Smiles data: CNc1ncc(-c2cc(C)cc(F)c2)c(N2CCC(N)CC2)c1-c1nc2cc(F)c(F)cc2[nH]1
hSST4/hSST2 (ratio): a (above 50)

Entry source: patent US11072598B2
